# experiment-notes: small-molecule microarray binders of probe aXIP, primary screen, biochemical, NeuroSMM set, 635/667 nm fluorescence (AID 1119);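 note: probe is the protein aXip251-270 applied at 1 µg/mL to compound-printed slides; binding of probe to printed compounds measured as 667 nm fluorescence plus signal to noise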
# test-conditions: higher = more signal, called active from +8 up or from −8 down
Label Criterion met when composite Z-score >= -0.2; otherwise Criterion not met.

Lookup: Quick check, composite Z-score >= -0.2? CCOC(=O)NN=C1C[C@@H](O)[C@@H](O)[C@@H]2[C@@H]3C(=O)N([C@@H](C)c4ccccc4)C(=O)[C@@H]3CC[C@H]12
Found: Criterion not met

Lookup: Say whether CCN1C(=O)[C@H]2[C@H]3[C@H](O)[C@H](O)CC(=NNC(=O)OCc4ccc(OC)cc4)[C@@H]3CC[C@H]2C1=O shows composite Z-score of -0.2 or more.
Found: Criterion met

Lookup: Does the molecule CCOC(=O)C1=NO[C@]2(C=C(Br)C3(OCCCO3)[C@H]3O[C@H]32)C1 have recorded composite Z-score that is -0.2 or more?
Found: Criterion not met

Lookup: Form field: composite Z-score at least -0.2? Entry: CO[C@H]1COC(=O)CC=C[C@H](C)[C@@H](OC)COC(=O)[C@@H](C)NC(=O)CC=C[C@@H]1C
Found: Criterion met

Lookup: Could you tell me if the measured composite Z-score of COc1ccc(C#C[C@@H]2C=C[C@H](OC(C)=O)[C@@H](COC(C)=O)O2)cc1 reaches -0.2 or more?
Found: Criterion met

Lookup: Please indicate if the recorded composite Z-score for CC(C)CON=C1C[C@@H](O)[C@@H](O)[C@@H]2[C@@H]3C(=O)N(Cc4ccc5c(c4)OCO5)C(=O)[C@@H]3CC[C@H]12 meets or exceeds -0.2.
Found: Criterion not met

Lookup: Given the entry COC(=O)C1=C(C)N(Cc2ccccc2)[C@]23O[C@](C(=O)OC)(C(=O)N2[C@@H]1c1ccccc1)C(C(=O)OC)=C3C(=O)OC , answer whether its composite Z-score meets or surpasses -0.2.
Found: Criterion met

Lookup: # check: composite Z-score of CC(CCN1CCCc2nc(C)c(C)cc21)=NOC(C)CN1CCCCc2nc(C)c(C)cc21 (stereo not given) is greater than or equal to -0.2
Found: Criterion met

Lookup: Assess whether reported composite Z-score for COc1cccc([C@H]2Oc3ccc(OC)cc3C(=NOC[C@@H](O)[C@H]3O[C@@H]4OC(C)(C)O[C@@H]4[C@H]3O)[C@@H]2O)c1 sits at -0.2 or higher.
Found: Criterion not met

Lookup: Please check the record C[C@@H](c1ccccc1)N1C(=O)[C@H]2[C@H]3[C@H](O)[C@H](O)CC(=NO[C@@H]4O[C@H](CO)[C@@H](O)[C@H](O)[C@H]4O)[C@H]3CC[C@H]2C1=O and state if its composite Z-score is at or above -0.2.
Found: Criterion met

Lookup: composite Z-score >= -0.2 for C[C@@H]1C=CCC(=O)OC[C@H]2O[C@@H](C=C[C@@H]2O)[C@H](C)C=CCC(=O)OC1 ?
Found: Criterion met

Lookup: Is it the case that CC1O[C@H]2C3=C(C(=O)[C@@H]4O[C@@H]4[C@H]3O)[C@@H]1C1[C@@H](C)OC=C3[C@H](O)C4O[C@@H]4C(=NOCc4ccccc4)[C@]312 (stereo not given in full) has composite Z-score reaching or exceeding -0.2?
Found: Criterion met

Lookup: Test whether the molecule CCC1=NOC(CCC2CC(OC(=O)NCc3cccc4c3OCO4)CC3(CCCC(COC(=O)NCCc4ccccc4OC)O3)O2)C1 (stereo not given) records composite Z-score of -0.2 or higher.
Found: Criterion met

Lookup: Record CCOC(=O)[C@H](CC(C)C)NC(=O)CCC1CC(OC(=O)NCc2ccc3c(c2)OCO3)CC2(CCCC(COC(=O)NCC(c3ccccc3)c3ccccc3)O2)O1 (stereo not given in full) ; criterion: composite Z-score no lower than -0.2. Met?
Found: Criterion met

Lookup: Please check the record CC(CCN1CCc2nc(-c3ccccc3)c(-c3ccccc3)cc2C1)=NOC[C@@H](O)COCc1ccco1 and state if its composite Z-score is at or above -0.2.
Found: Criterion met

Just for reference, PubChem BioAssay is where these values come from.
